B1: Azoarcus group I ribozyme (parent)
chain: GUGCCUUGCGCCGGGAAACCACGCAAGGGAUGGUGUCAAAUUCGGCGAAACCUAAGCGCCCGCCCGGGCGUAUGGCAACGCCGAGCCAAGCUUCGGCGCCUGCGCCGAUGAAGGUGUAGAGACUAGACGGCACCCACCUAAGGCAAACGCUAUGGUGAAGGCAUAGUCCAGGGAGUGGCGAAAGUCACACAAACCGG

Variants of: B1
ASSAY: reverse-splicing fitness (ratio to wild type); higher = more active; in vitro selection; Mg2+ level not given
reverse-splicing fitness values for the variants below.
MEASUREMENT_KIND: reverse-splicing fitness

>>> recorded_value("A111G A120C A145G C169G")
0.0121
>>> recorded_value("C82A A111G A120U A145U C150A C169U U176A")
0.00277
>>> recorded_value("C82A A111G A145U C150G C169A")
0.00833
>>> recorded_value("A111C A120U A145C C169A")
0.00529
>>> recorded_value("A111G C150U C169U U176A")
0.0336
>>> recorded_value("A111U C150U C169A U176A")
0.015
>>> recorded_value("C82G A111U A120C A145C C150U")
0.0168
>>> recorded_value("A111G A120G A145U C169G")
0.33
>>> recorded_value("C82G A111C A120G A145G C150A C169U U176A")
0.014
>>> recorded_value("C82G A145U C150U C169G")
0.0103
>>> recorded_value("C82U A111U A120U A145G C150U C169G U176A")
0.00606
>>> recorded_value("C82U A111G A120U C150G C169U U176A")
0.00387
>>> recorded_value("C82G A111C A145C C150U C169A U176A")
0.0156
>>> recorded_value("A120G C150G")
0.0593
>>> recorded_value("C82A A111U A120U A145U C150G C169G U176G")
0.00241
>>> recorded_value("C82A A120C A145G C150G C169U U176C")
0.015
>>> recorded_value("C82A A111U A120G A145C C169A U176A")
0.0141
>>> recorded_value("C82A C150U U176G")
0.069
>>> recorded_value("C82U A111G A145U C169A U176G")
0.00528
>>> recorded_value("C82U A111C A120U A145U C169G U176G")
0.00187
>>> recorded_value("A120C A145U C169U")
0.441
>>> recorded_value("C82G A111C A120G A145U C150A C169A U176G")
0.00581

Data provenance: the RNAGym collection of RNA variant scans (doi:10.1093/molbev/msab373)
